# target desc: Serine/threonine-protein kinase BRSK1 (Homo sapiens)
# experimental setup: at 10 µM
Note to self: residual activity under 80% means 1, ties and anything higher get 0.

[
  {
    "molecule": "Cc1nc(-c2ccccc2)c(-c2ccncc2)o1",
    "classification": 0
  },
  {
    "molecule": "CC(=O)O/N=C1\\C(=C2\\C(=O)Nc3cc(Br)ccc32)Nc2ccccc21",
    "classification": 1
  },
  {
    "molecule": "CO[C@@H]1[C@H](N(C)C(=O)c2ccccc2)C[C@H]2O[C@]1(C)n1c3ccccc3c3c4c(c5c6ccccc6n2c5c31)C(=O)NC4",
    "classification": 1
  }
]

Lookup: Decide: residual activity of CCOc1cc2ncnc(Nc3cccc(Br)c3)c2cc1OCC strictly below 80%?
Found: 1

Lookup: Lab note: confirm whether the reported residual activity for this compound is below 80%, equality not counting. compound: CC(C)n1cnc2/c(=N/c3cccc(Cl)c3)nc(NCCO)[nH]c21
Found: 0

====

# target desc: Tyrosine-protein kinase Lyn (Homo sapiens) (UniProt P07948)
# Sequence (P07948 2-512 limits assumed): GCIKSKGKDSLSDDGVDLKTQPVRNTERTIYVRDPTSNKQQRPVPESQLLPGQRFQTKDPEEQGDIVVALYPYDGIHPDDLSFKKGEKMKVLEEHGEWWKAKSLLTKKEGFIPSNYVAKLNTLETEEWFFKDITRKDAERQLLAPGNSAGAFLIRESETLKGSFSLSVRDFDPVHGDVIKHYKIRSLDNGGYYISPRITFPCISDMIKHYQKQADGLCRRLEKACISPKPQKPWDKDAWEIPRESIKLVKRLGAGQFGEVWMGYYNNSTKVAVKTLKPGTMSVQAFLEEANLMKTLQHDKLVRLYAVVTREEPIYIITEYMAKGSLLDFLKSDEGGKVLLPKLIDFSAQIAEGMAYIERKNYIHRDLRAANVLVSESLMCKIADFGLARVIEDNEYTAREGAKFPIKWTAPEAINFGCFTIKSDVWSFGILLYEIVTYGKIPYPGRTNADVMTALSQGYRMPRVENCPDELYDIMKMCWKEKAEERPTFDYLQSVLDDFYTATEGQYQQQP
# experimental setup: at 10 µM
residual activity below 50% gives F; residual activity at or above it gives T.

Would you please look over these solved cases?
[
  {
    "molecule": "Nc1cccc(-c2cc3c(Oc4cccc(O)c4)ncnc3[nH]2)c1",
    "target desc": "Tyrosine-protein kinase Lyn (Homo sapiens) (UniProt P07948)",
    "classification": "F"
  },
  {
    "molecule": "Cc1cncc2cccc(S(=O)(=O)N3CCCN(C(=O)CN)C[C@H]3C)c12",
    "target desc": "Tyrosine-protein kinase Lyn (Homo sapiens) (UniProt P07948)",
    "classification": "F"
  },
  {
    "molecule": "Cc1cc(Nc2nc(-c3ccccc3)nc3ccccc23)n[nH]1",
    "target desc": "Tyrosine-protein kinase Lyn (Homo sapiens) (UniProt P07948)",
    "classification": "F"
  },
  {
    "molecule": "O=[N+]([O-])c1ccc(-c2nc(-c3ccc(F)cc3)c(-c3ccncc3)[nH]2)cc1",
    "target desc": "Tyrosine-protein kinase Lyn (Homo sapiens) (UniProt P07948)",
    "classification": "F"
  },
  {
    "molecule": "CN(C)c1ccc(/C=C2\\C(=O)Nc3ccccc32)cc1",
    "target desc": "Tyrosine-protein kinase Lyn (Homo sapiens) (UniProt P07948)",
    "classification": "T"
  }
]

Here is the next item to consider.
Lookup: Given the entry N#C/C(=C(\N)Sc1ccc(N)cc1)c1ccccc1C(F)(F)F , answer whether its residual activity meets or surpasses 50%.
Found: T

====

# target desc: Ribosomal protein S6 kinase alpha-2 (Homo sapiens) (UniProt Q15349)
# Sequence (Q15349 whole entry): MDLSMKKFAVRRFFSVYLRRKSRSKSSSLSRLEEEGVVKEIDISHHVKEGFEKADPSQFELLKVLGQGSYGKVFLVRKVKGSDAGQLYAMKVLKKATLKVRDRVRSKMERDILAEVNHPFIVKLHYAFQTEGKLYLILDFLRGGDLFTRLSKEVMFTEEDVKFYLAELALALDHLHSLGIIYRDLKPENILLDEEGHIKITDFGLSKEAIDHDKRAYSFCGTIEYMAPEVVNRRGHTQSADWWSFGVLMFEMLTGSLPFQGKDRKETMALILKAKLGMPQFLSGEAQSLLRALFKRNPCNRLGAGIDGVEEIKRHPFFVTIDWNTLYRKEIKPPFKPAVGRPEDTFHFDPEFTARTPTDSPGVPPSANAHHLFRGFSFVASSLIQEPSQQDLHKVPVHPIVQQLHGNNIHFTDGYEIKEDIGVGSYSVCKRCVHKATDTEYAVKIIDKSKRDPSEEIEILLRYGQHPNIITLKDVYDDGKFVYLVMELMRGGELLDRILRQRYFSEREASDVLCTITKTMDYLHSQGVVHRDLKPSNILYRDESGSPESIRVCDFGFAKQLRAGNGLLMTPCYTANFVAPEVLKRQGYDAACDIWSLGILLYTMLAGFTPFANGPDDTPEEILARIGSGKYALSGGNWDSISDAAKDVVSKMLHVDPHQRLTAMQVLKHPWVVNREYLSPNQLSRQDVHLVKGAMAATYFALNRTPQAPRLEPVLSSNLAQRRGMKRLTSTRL
# experimental setup: at 10 µM
endpoint label: residual activity
// unit must come after the numeric part

[
  {
    "molecule": "COc1ccc(CNc2nc(N(CCO)CCO)nc3c2ncn3C(C)C)cc1",
    "residual activity": "5%"
  },
  {
    "molecule": "c1ccc(-c2n[nH]c3c2oc2ccccc23)cc1",
    "residual activity": "64%"
  },
  {
    "molecule": "CC[n+]1c(/C=C/N(C)c2ccccc2)n(-c2ccccc2)c2ccc(-c3nc4ccccc4s3)cc21",
    "residual activity": "97%"
  },
  {
    "molecule": "O=c1cc(-c2cccc3c2Sc2ccccc2S3)oc(N2CCOCC2)c1",
    "residual activity": "99%"
  }
]

Lookup: Item COc1cc2ncnc(N3CCN(C(=O)Nc4ccc(Oc5ccccc5)cc4)CC3)c2cc1OC has what recorded residual activity?
Found: 71%

Lookup: Recorded residual activity of N#Cc1cnc2cnc(NCc3cccnc3)cc2c1Nc1ccc(F)c(Cl)c1 , please.
Found: 0%

Lookup: Given O=C1NC(=O)c2cc(Nc3ccc(F)cc3)c(Nc3ccc(F)cc3)cc21 , state its recorded residual activity.
Found: 78%

Lookup: What measured residual activity goes with Oc1n[nH]c2nnc(-c3c(-c4ccccc4)nn4ccccc34)cc12 ?
Found: 78%

Lookup: Query (molecule): CCOc1cc2ncnc(Nc3cccc(Br)c3)c2cc1OCC ; field requested: residual activity
Found: 48%

====

# target desc: Serine/threonine-protein kinase TAO1 (Homo sapiens) (UniProt Q7L7X3)
# Sequence (Q7L7X3 whole entry): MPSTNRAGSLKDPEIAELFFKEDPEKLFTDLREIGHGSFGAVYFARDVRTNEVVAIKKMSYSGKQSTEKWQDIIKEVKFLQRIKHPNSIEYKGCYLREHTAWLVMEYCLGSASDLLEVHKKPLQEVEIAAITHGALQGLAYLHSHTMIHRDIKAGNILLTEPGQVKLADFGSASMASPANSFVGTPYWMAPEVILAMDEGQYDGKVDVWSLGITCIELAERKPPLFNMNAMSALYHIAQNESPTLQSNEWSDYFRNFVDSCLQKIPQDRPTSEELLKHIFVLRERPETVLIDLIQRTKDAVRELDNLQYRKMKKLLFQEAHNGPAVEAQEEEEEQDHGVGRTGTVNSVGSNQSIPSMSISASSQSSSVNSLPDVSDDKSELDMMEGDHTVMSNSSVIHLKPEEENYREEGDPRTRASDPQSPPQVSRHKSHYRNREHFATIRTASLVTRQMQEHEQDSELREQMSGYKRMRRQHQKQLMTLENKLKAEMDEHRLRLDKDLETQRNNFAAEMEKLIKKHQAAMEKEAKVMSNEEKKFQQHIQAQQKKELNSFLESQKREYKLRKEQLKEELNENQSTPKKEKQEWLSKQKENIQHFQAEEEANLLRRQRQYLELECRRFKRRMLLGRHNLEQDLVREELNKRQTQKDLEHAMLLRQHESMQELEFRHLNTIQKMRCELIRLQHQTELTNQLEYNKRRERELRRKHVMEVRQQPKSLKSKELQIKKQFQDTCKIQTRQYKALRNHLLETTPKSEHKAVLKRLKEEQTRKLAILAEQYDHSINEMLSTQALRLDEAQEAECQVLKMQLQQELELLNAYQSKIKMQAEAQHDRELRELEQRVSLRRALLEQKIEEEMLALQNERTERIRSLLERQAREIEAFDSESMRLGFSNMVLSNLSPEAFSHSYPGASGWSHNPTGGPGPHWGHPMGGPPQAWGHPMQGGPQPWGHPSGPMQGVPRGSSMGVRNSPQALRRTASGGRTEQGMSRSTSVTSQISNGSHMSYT
# experimental setup: at 10 µM
Label 1.0 when residual activity is at or above 40%; otherwise label 0.0.

These recorded examples may help you get a feel for the data.
[
  {
    "molecule": "O=C1NC(=O)/C(=C\\c2ccc3nccnc3c2)S1",
    "classification": 0.0
  },
  {
    "molecule": "N#C/C(=C(\\N)Sc1ccc(N)cc1)c1ccccc1C(F)(F)F",
    "classification": 1.0
  },
  {
    "molecule": "CCOc1cc2ncnc(Nc3cccc(Br)c3)c2cc1OCC",
    "classification": 1.0
  },
  {
    "molecule": "CN(C)CCCn1cc(C2=C(c3c[nH]c4ccccc34)C(=O)NC2=O)c2ccccc21",
    "classification": 1.0
  },
  {
    "molecule": "Cc1cncc2cccc(S(=O)(=O)N3CCCN(C(=O)CN)C[C@H]3C)c12",
    "classification": 0.0
  },
  {
    "molecule": "O=[N+]([O-])c1ccc(-c2nc(-c3ccc(F)cc3)c(-c3ccncc3)[nH]2)cc1",
    "classification": 1.0
  }
]

Lookup: Check the entry N#CCCc1ccc2c(c1)-c1[nH]c3ccc([N+](=O)[O-])cc3c1CC(=O)N2 : does residual activity equal or exceed 40%?
Found: 0.0

Lookup: Assess whether reported residual activity for Oc1n[nH]c2nnc(-c3c(-c4ccccc4)nn4ccccc34)cc12 sits at 40% or higher.
Found: 1.0

Lookup: Does the compound CO[C@H]1[C@@H](OC)C[C@H](C)[C@@H](OC)C2=CC(=O)C=C(NC(=O)/C(C)=C/C=C/[C@H](OC)[C@@H](OC(N)=O)/C(C)=C/[C@@H]1C)C2=O have recorded residual activity that is 40% or more?
Found: 1.0

====

# target desc: Proto-oncogene tyrosine-protein kinase Src (Homo sapiens)
# experimental setup: at 1 µM
Think of 70% as a floor: if residual activity stands on it or above, it is met; beneath it, not met.

[
  {
    "molecule": "CCN(CC)C(=O)c1ccc(Nc2nc(OCC3CCCCC3)c3nc[nH]c3n2)cc1",
    "target desc": "Proto-oncogene tyrosine-protein kinase Src (Homo sapiens)",
    "classification": "not met"
  },
  {
    "molecule": "CN(C)c1ccc(/C=C2\\C(=O)Nc3ccccc32)cc1",
    "target desc": "Proto-oncogene tyrosine-protein kinase Src (Homo sapiens)",
    "classification": "met"
  },
  {
    "molecule": "Cc1cccc(-c2[nH]c(C(C)(C)C)nc2-c2ccc3c(c2)OCO3)n1",
    "target desc": "Proto-oncogene tyrosine-protein kinase Src (Homo sapiens)",
    "classification": "met"
  },
  {
    "molecule": "Oc1n[nH]c2nnc(-c3c(-c4ccccc4)nn4ccccc34)cc12",
    "target desc": "Proto-oncogene tyrosine-protein kinase Src (Homo sapiens)",
    "classification": "met"
  },
  {
    "molecule": "O=C1NC(=O)c2cc(Nc3ccc(F)cc3)c(Nc3ccc(F)cc3)cc21",
    "target desc": "Proto-oncogene tyrosine-protein kinase Src (Homo sapiens)",
    "classification": "met"
  }
]

Lookup: Is the recorded value of residual activity equal to or greater than 70% for this molecule? Nc1cccc(-c2cc3c(Oc4cccc(O)c4)ncnc3[nH]2)c1
Found: not met

Lookup: Given CC(C)n1cnc2/c(=N/c3cccc(Cl)c3)nc(NCCO)[nH]c21 , state whether its residual activity is at least 70%.
Found: not met

Lookup: Is the recorded value of residual activity equal to or greater than 70% for this molecule? COc1cccc(-c2cc(=O)c3ccccc3o2)c1N
Found: met

Lookup: State whether the measured residual activity reaches 70%, counting equality as reaching it, for O=c1cc(-c2cccc3c2Sc2ccccc2S3)oc(N2CCOCC2)c1
Found: met

Lookup: Can Cn1cc(/C=C2\C(=O)Nc3ccc(S(N)(=O)=O)cc32)c2ccccc21 be said to have residual activity at or above 70%?
Found: not met

Lookup: State whether the measured residual activity reaches 70%, counting equality as reaching it, for Ic1cccc(CSc2nnc(-c3ccncc3)o2)c1
Found: met

====

Recorded residual activity for the following compounds
# target desc: Serine/threonine-protein kinase Chk2 (Homo sapiens) (UniProt O96017)
# Sequence (O96017 whole entry): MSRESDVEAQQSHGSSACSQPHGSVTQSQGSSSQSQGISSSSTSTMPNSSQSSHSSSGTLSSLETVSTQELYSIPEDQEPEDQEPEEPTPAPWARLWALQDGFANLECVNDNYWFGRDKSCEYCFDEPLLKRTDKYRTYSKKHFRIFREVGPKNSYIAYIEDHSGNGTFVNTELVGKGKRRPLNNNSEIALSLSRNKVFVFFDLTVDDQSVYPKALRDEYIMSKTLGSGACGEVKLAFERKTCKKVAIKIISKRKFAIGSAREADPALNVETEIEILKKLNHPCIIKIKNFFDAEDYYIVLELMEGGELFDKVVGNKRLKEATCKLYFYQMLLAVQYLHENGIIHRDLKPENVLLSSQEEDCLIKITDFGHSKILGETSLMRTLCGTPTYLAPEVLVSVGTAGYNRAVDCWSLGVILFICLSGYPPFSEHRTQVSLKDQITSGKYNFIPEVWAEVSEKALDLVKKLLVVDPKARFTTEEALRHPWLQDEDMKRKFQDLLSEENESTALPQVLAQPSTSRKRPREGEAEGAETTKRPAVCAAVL
# experimental setup: at 10 µM
Express the result in % but write the number alone.

[
  {
    "molecule": "Cc1cccc(-c2[nH]c(C(C)(C)C)nc2-c2ccc3c(c2)OCO3)n1",
    "endpoint label": "residual activity",
    "value measured": 97
  },
  {
    "molecule": "O=C1NC(=O)/C(=C/c2ccc3c(c2)OC(F)(F)O3)S1",
    "endpoint label": "residual activity",
    "value measured": 85
  },
  {
    "molecule": "COc1cc2ncnc(Nc3ccc(NC(=O)c4ccccc4)cc3)c2cc1OC",
    "endpoint label": "residual activity",
    "value measured": 8
  },
  {
    "molecule": "CC(C)n1cnc2c(NCc3ccccc3)nc(NCCCO)nc21",
    "endpoint label": "residual activity",
    "value measured": 60
  },
  {
    "molecule": "Cn1nc2c3c(cccc31)C(=O)c1ccccc1-2",
    "endpoint label": "residual activity",
    "value measured": 40
  }
]

Lookup: Entry C[C@@H](N)[C@H]1CC[C@H](C(=O)Nc2ccncc2)CC1 : reported residual activity = ?
Found: 97

Lookup: Give the measured residual activity of CCN(CC)C(=O)c1ccc(Nc2nc(OCC3CCCCC3)c3nc[nH]c3n2)cc1 .
Found: 12

Lookup: Request the reported residual activity associated with CCOc1cc2ncnc(Nc3cccc(Br)c3)c2cc1OCC
Found: 47

Lookup: Report residual activity for CN(C)c1ccc(/C=C2\C(=O)Nc3ccccc32)cc1 please.
Found: 36

Lookup: Record request: residual activity value, item O=c1c2ccccc2[nH]c(=S)n1CCN1CCC(=C(c2ccc(F)cc2)c2ccc(F)cc2)CC1
Found: 85

Lookup: I'd like to know its residual activity. The compound in question is O=C1NC(=O)/C(=C\c2ccc3nccnc3c2)S1
Found: 33
